# ASSAY SUMMARY: NCI Yeast Anticancer Drug Screen. Data for the rad50 strain (AID 155);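 note: 0% = growth of vehicle-only cultures of the same strain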
# ASSAY SETUP: S. cerevisiae rad50 strain growth inhibition; at 50.0 µM; hits give high values
Compounds without any hit were thinned out: in the full panel of roughly 79,000, 15% have a hit. Activity calls are given as the source filed them. Cut-off read from the data, not from the text of the source: active = growth inhibition above about 70%; inactive = the rest.
Entries annotated with measured growth inhibition
PARAMETER MEASURED: growth inhibition

>>> readout_value("Clc1cccc(Cl)c1Br")
"7.45% (inactive)"
>>> readout_value("COc1cc(/C=C(/C#N)C(N)=O)ccc1O")
"-1.7% (inactive)"
>>> readout_value("COc1ccc(NC(=S)Nc2ccccn2)cc1")
"-9.3% (inactive)"
>>> readout_value("CC(C)Oc1ccc(C(=O)NS(=O)(=O)c2ccc(N)cc2)cc1")
"-25% (inactive)"
>>> readout_value("O=S(=O)(O)c1ccc(-c2ccccc2)cc1")
"-0.4% (inactive)"
>>> readout_value("CCC(=O)N/N=C/C=N/NC(=O)c1ccncc1")
"-30.7% (inactive)"
>>> readout_value("COc1cc(-c2cc(=O)c3c(C)cc(O)cc3o2)cc(OC)c1OC")
"-2.1% (inactive)"

---

# ASSAY SUMMARY: NCI Yeast Anticancer Drug Screen. Data for the mlh1 rad18 strain (AID 175)
# ASSAY SETUP: S. cerevisiae mlh1 rad18 strain growth inhibition; at 50.0 µM; hits give high values
The panel holds about 79,000 compounds, 15% with a hit somewhere; the sample as a whole holds those more often.
PARAMETER MEASURED: growth inhibition (%)

>>> readout_value("Cc1cc(N(CCC#N)CCC#N)ccc1/C=N/NC(=O)c1cc(Cl)ccc1O")
-32
>>> readout_value("Cc1ccc(CNc2cccc([N+](=O)[O-])c2)cc1")
1.8
>>> readout_value("COc1ccc2cc1Oc1ccc(cc1)CC1c3cc(OC)c(cc3CCN1C)Oc1c(OC)c(OC)cc3c1C(C2)N(C)CC3 (centres undefined)")
-43.3
>>> readout_value("OC(c1ccc(F)cc1)(c1cccs1)C1CC1 (centres undefined)")
-20.2
>>> readout_value("N=C(N)c1ccc(N=Nc2c(O)ccc3cc(O)ccc23)cc1")
-27.5
>>> readout_value("CNc1nc2c(C)ccc3[nH]c(N(C)C)nc3c-2n1")
-10.9
>>> readout_value("CC(C)CCCC(C)[C@H]1CC[C@H]2[C@@H]3CC[C@H]4C[C@@H](CCC=C(c5cc(Cl)c(O)c(C(=O)O)c5)c5cc(Cl)c(O)c(C(=O)O)c5)CC[C@]4(C)[C@H]3CC[C@]12C (some centres undefined) (tested in a mixture with another compound)")
51.2
>>> readout_value("CN(C)c1ccc(/C=N/n2c(-c3ccccc3)nc3ccccc3c2=O)cc1")
-41
>>> readout_value("CC1CCN(c2ccc([N+](=O)[O-])cc2[N+](=O)[O-])CC1")
25.6

---

Entries annotated with measured growth inhibition
# ASSAY SUMMARY: NCI Yeast Anticancer Drug Screen. Data for the rad50 strain (AID 155);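 note: 0% = growth of vehicle-only cultures of the same strain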
# ASSAY SETUP: S. cerevisiae rad50 strain growth inhibition; at 50.0 µM; hits give high values
The panel holds about 79,000 compounds, 15% with a hit somewhere; the sample as a whole holds those more often.
PARAMETER MEASURED: growth inhibition (%)

>>> readout_value("COc1ccc2c(=O)c(-c3cc4c(cc3OC)OCO4)coc2c1")
-26.5
>>> readout_value("CCCN1CCc2cc(OC)c(OC)cc2C1Cc1ccc(OC)c(OC)c1 (stereo not drawn)")
-13.8
>>> readout_value("Cc1ccc(CNc2cccc([N+](=O)[O-])c2)cc1")
8.6
>>> readout_value("C=C(C)C1CC2(C)C(C)CC(OC(=O)/C(C)=C\\C)CC2C(OC(=O)/C(C)=C\\C)C1O (stereo not drawn)")
31.2
>>> readout_value("CCCCCCCCOC(=O)C12Oc3ccc(-c4ccc5c(c4O)C(O)=C4C(=O)CC(C)C(O)C4(C(=O)OCCCCCCCC)O5)c(O)c3C(O)=C1C(=O)CC(C)C2O (stereo not drawn)")
16.4
>>> readout_value("Cc1ccc(-c2noc(C)n2)cc1")
-12.9
>>> readout_value("CCC1OC2(C)CC(C#N)(C#N)C1(C#N)C(=N)O2 (stereo not drawn)")
0.6
>>> readout_value("NC(Cc1ccc(S(=O)(=O)O)cc1)C(=O)NC(Cc1ccc(S(=O)(=O)O)cc1)C(=O)NC(Cc1ccc(S(=O)(=O)O)cc1)C(=O)NC(Cc1ccc(S(=O)(=O)O)cc1)C(=O)O (stereo not drawn)")
-6.5
>>> readout_value("c1cc[n+](CCNCC[n+]2ccccc2)cc1")
8.55
>>> readout_value("COC(=O)c1ccc2oc(=O)cc(C)c2c1O")
-7.6
>>> readout_value("O=C(OCC1OC(Oc2ccccc2CO)C(O)C(O)C1O)c1ccccc1 (stereo not drawn)")
-2.1
>>> readout_value("CN1C2CCC1CC(OC(=O)C(O)c1ccccc1)C2 (stereo not drawn)")
9.3
>>> readout_value("CC(=N/N=C/c1ccccn1)/C(C)=N/N=C(C)/C(C)=N/N=C(C)/C(C)=N/N=C(C)/C(C)=N\\N=C\\c1ccccn1")
24.1
>>> readout_value("O=[N+]([O-])c1ccc(-n2[nH]nnc2=S)cc1")
-6.7
>>> readout_value("COC(=O)/C(=N\\NC(=S)NN)C(C(=O)OC)C(=O)C(=O)Nc1cccc(C(F)(F)F)c1 (stereo not drawn)")
0.3
>>> readout_value("C1CCCCNCCC1")
-22.8
>>> readout_value("CC12CCC(CC1)C(C)(C)O2")
-1.95
>>> readout_value("CC12CC3CC(C(Cl)C(=O)O)(C1)CC(C(Cl)C(=O)O)(C3)C2 (stereo not drawn)")
52.1
>>> readout_value("O=C(/C=C/C=C/c1ccccc1)c1ccc(Cl)cc1")
-12.3
>>> readout_value("CC1=NN(c2ccccc2)C(=O)C1C(=O)c1ccccc1 (stereo not drawn)")
22.2
>>> readout_value("COc1ccc(/C=N\\NC(=O)OC(C)(C)C)c(OC)c1OC")
-23.8
>>> readout_value("CCCCCCCCCCCCOc1ccccc1")
6.15
>>> readout_value("COc1ccc(/C=C(\\C#N)c2ccc(C)cc2)cc1OC")
50.4
